B1: KRT33B (parent)
chain: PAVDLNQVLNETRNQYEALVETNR

Variants of: B1
procedure.text: protein stability index of a GFP-peptide fusion (GPS, HEK-293T) (PSI 1-6); higher = more stable;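 also: lentivirally expressed fusions sorted by FACS into six bins by GFP to DsRed ratio, PSI derived from sequencing read proportions per bin multiplied by bin number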
condition.description: c terminus: a fixed tail appended
Please respond with reported protein stability index for every item in the list.
API doc: respond with a numeric literal and nothing else, no unit.

Tell me the measured protein stability index of A18W , please.
3.72

Same question for T12G please.
4.32

Same question for V3K please.
3.83

Same question for N6S please.
3.54

Same question for L9F please.
4.25

Same question for N23Y please.
3.71

Same question for L19A please.
5.03

Same question for N10Y please.
2.47

Same question for L5R please.
4.4

Same question for L5G please.
5.15

Same question for L9H please.
4.2

Same question for L5N please.
5.02

Same question for N10H please.
3.74

Same question for D4T please.
3.08

Same question for N10L please.
2.56

Same question for V20H please.
4.92

Same question for L9T please.
4.61

Same question for Q7G please.
4.59

Same question for L5W please.
2.52

Same question for A18Q please.
2.96

Same question for N14W please.
2.55

Same question for R24P please.
4.94
